Values compiled from patent US20240166635A1.

biological target: CDK1/CyclinB (Homo sapiens (Human), UniProt P06493); assay: CDK1/CyclinB kinase inhibitory activity (Caliper mobility shift); conditions: read-out: CDK1/Cyclin B1 IC50
Sequence (P06493 whole entry): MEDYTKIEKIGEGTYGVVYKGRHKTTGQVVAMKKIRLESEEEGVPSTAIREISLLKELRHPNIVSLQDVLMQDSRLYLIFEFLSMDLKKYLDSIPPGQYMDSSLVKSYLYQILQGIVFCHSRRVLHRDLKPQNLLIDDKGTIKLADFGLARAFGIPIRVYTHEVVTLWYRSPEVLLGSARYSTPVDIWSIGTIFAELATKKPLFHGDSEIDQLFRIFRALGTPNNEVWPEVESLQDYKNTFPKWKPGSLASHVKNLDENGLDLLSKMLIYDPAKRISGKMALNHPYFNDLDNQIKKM
Sequence (P14635 whole entry partner): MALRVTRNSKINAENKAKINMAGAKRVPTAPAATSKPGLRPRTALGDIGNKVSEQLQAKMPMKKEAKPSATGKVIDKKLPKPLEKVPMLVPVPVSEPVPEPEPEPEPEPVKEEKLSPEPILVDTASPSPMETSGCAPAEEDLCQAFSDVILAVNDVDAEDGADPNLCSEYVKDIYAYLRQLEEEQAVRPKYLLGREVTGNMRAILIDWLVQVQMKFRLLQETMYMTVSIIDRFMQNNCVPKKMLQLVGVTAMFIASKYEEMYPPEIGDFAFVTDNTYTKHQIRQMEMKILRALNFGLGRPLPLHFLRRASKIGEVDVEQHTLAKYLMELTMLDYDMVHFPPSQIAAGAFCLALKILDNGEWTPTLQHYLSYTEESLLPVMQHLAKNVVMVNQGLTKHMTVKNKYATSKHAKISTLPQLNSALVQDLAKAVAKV
Readout label: IC50

N#Cc1cnc(Nc2ccc(S(N)(=O)=O)cc2)nc1OC1CCCCCC1O (single isomer, unassigned) [Example 22a] :: 10 to 100 nM
CC(C)NS(=O)(=O)c1ccc(Nc2ncc(Cl)c(OC3CCCC3O)n2)cc1 (single isomer, unassigned) [Example 138a] :: 10 to 100 nM
[2H]C([2H])([2H])NS(=O)(=O)c1ccc(Nc2ncc(Cl)c(OC3COCC3(C)O)n2)cc1 (single isomer, unassigned) [Example 140b] :: ≥ 1000 nM
CC1(NS(=O)(=O)c2ccc(Nc3ncc(Br)c(O[C@@H]4CCC[C@@H]4O)n3)cc2)COC1 (single isomer, unassigned) [Example 131a] :: 10 to 100 nM
NS(=O)(=O)c1ccc(Nc2ncc(Cl)c(OC3CCCC3O)n2)cc1 (single isomer, unassigned) [Example 136b] :: 10 to 100 nM

Let us examine a further case.
IC50 of [2H]C([2H])([2H])NS(=O)(=O)c1ccc(Nc2ncc(CC)c(OC3COCC3(C)O)n2)cc1 (single isomer, unassigned) [Example 150a] on CDK1/CyclinB (Homo sapiens (Human), UniProt P06493)?
10 to 100 nM
